Tested on: SW 1573
assay-method-text: relative viability (nuclei count vs DMSO), 5 days (fraction); higher = more cells survive
setup-conditions: first compound 0.4 µM
Reported relative viability values for a set of compounds
reported-metric: relative viability

• Cc1sc2c(c1C)C(c1ccc(Cl)cc1)=N[C@@H](CC(=O)OC(C)(C)C)c1nnc(C)n1-2 [JQ1] + CS(=O)(=O)CCNCc1ccc(-c2ccc3ncnc(Nc4ccc(OCc5cccc(F)c5)c(Cl)c4)c3c2)o1 [Lapatinib] (partner 2 µM) = 0.881
• Cc1sc2c(c1C)C(c1ccc(Cl)cc1)=N[C@@H](CC(=O)OC(C)(C)C)c1nnc(C)n1-2 [JQ1] + N=C(N)NC(=N)NCCc1ccccc1 [Phenformin] (partner 250 µM) = 0.402
• Cc1sc2c(c1C)C(c1ccc(Cl)cc1)=N[C@@H](CC(=O)OC(C)(C)C)c1nnc(C)n1-2 [JQ1] + C[C@@H](Oc1cc(-c2cnn(C3CCNCC3)c2)cnc1N)c1c(Cl)ccc(F)c1Cl [Crizotinib] (partner 1 µM) = 0.678

---

Consider the following molecules and their measured relative viability readings.
System: NCI-H441
assay-method-text: relative viability (nuclei count vs DMSO), 5 days (fraction); higher = more cells survive
setup-conditions: first compound 0.002 µM
reported-metric: relative viability

* CC(=O)O[C@@]12CO[C@@H]1C[C@H](O)[C@@]1(C)C(=O)[C@H](O)C3=C(C)[C@@H](OC(=O)[C@H](O)[C@@H](NC(=O)OC(C)(C)C)c4ccccc4)C[C@@](O)([C@@H](OC(=O)c4ccccc4)[C@H]21)C3(C)C [Docetaxel] + N=C(N)NC(=N)NCCc1ccccc1 [Phenformin] (partner 250 µM) | 0.315
* CC(=O)O[C@@]12CO[C@@H]1C[C@H](O)[C@@]1(C)C(=O)[C@H](O)C3=C(C)[C@@H](OC(=O)[C@H](O)[C@@H](NC(=O)OC(C)(C)C)c4ccccc4)C[C@@](O)([C@@H](OC(=O)c4ccccc4)[C@H]21)C3(C)C [Docetaxel] + CC1(C)CCC(c2ccc(Cl)cc2)=C(CN2CCN(c3ccc(C(=O)NS(=O)(=O)c4ccc(N[C@H](CCN5CCOCC5)CSc5ccccc5)c(S(=O)(=O)C(F)(F)F)c4)cc3)CC2)C1 [Navitoclax] (partner 0.5 µM) | 0.204
* CC(=O)O[C@@]12CO[C@@H]1C[C@H](O)[C@@]1(C)C(=O)[C@H](O)C3=C(C)[C@@H](OC(=O)[C@H](O)[C@@H](NC(=O)OC(C)(C)C)c4ccccc4)C[C@@](O)([C@@H](OC(=O)c4ccccc4)[C@H]21)C3(C)C [Docetaxel] + O=C(CCCCCCC(=O)Nc1ccccc1)NO [Vorinostat] (partner 1 µM) | 0.223

---

System: NCI-H2170
assay-method-text: relative viability (nuclei count vs DMSO), 5 days (fraction); higher = more cells survive
setup-conditions: first compound 0.08 µM
reported-metric: relative viability

- O=c1[nH]c2ccccc2n1C1CCN(CCCC(c2ccc(F)cc2)c2ccc(F)cc2)CC1 [Pimozide] + CC(=O)Nc1cccc(-n2c(=O)n(C3CC3)c(=O)c3c(Nc4ccc(I)cc4F)n(C)c(=O)c(C)c32)c1 [Trametinib] (partner 0.02 µM): 0.943
- O=c1[nH]c2ccccc2n1C1CCN(CCCC(c2ccc(F)cc2)c2ccc(F)cc2)CC1 [Pimozide] + CS(=O)(=O)N1CCN(Cc2cc3nc(-c4cccc5[nH]ncc45)nc(N4CCOCC4)c3s2)CC1 [Pictilisib] (partner 1 µM): 0.308
- Cc1cnc(-c2cnc(NCCNc3ccc(C#N)cn3)nc2-c2ccc(Cl)cc2Cl)[nH]1 + Nc1ncn([C@H]2C[C@H](O)[C@@H](CO)O2)c(=O)n1 [Decitabine] (partner 2 µM): 0.481
- Cc1cnc(-c2cnc(NCCNc3ccc(C#N)cn3)nc2-c2ccc(Cl)cc2Cl)[nH]1 + Nc1nc2[nH]cc(CCc3ccc(C(=O)N[C@@H](CCC(=O)O)C(=O)O)cc3)c2c(=O)[nH]1 [Pemetrexed] (partner 0.2 µM): 0.253
